- protocol.summary: qHTS for Inhibitors of the Functional Ribonucleoprotein Complex (vRNP) of Lassa (LASV) Arenavirus: Viability assay - alamar blue signal for LASV Primary Screen (AID 1347083); also: nearly all actives have a fitted effect of over 80% in size
- settings: cell viability, alamar blue fluorescence (LASV minigenome counter-screen); series mostly up to 57.5 µM
Inconclusive results are not listed. Active and inactive are the calls of the source. Calls follow the shape of the full dose curve; tested in HEK293 reporter line.
Classes used: y (active), n (inactive)

molecule | label.class
Brc1ccccc1-c1ccccc1 | n
Cc1c(C(=O)Nc2ccc(N3C[C@@H](C)O[C@@H](C)C3)nc2)cccc1-c1ccc(OC(F)(F)F)cc1 | n
CCCN1CCO[C@@H]2c3cc(O)ccc3OC[C@@H]21 | n
COC(=O)c1cncn1C(C)c1ccccc1 (stereo not drawn) | n
CC(C)[C@]12O[C@@H]1[C@@H]1O[C@]13[C@]1(O[C@H]1C[C@@H]1C4=C(CC[C@@]13C)C(=O)OC4)[C@H]2O | n
CC=C(C)C(=O)O[C@H]1C(C)=C2[C@@H]3OC(=O)[C@@](C)(O)[C@@]3(O)[C@@H](OC(=O)CCC)C[C@](C)(OC(C)=O)[C@@H]2[C@@H]1OC(=O)CCCCCCC | y
CS(=O)(=O)Oc1ccc2c(NC(N)=O)c(C(=O)c3ccc(Cl)cc3Cl)oc2c1 | y
CSCC[C@@H](NC(=O)[C@@H](Cc1ccccc1)NC(=O)CNC(=O)CNC(=O)[C@@H](N)Cc1ccc(O)cc1)C(=O)O | n

----------
- settings: Ebola virus entry assay, reporter ratio channel; Channel type: primary
Calls of active or inactive are those of the source. How the calls were made is not given here.
Classes used: active, inactive

structure.as.smiles | label.class
C1CCC(NC2CCCCC2)CC1 | inactive
C=CCNC(N)=S | inactive
COc1ccc(C(c2ccc(OC)cc2)C(Cl)(Cl)Cl)cc1 | active
CCOC(=O)c1c(C)n(C)c2ccc(O)cc12 | inactive

----------
- protocol.summary: Quantitative High-Throughput drug screen in 47 multiple myeloma cell lines against the NCATS MIPE library collection: KMS27_JCRB cell viability assay (AID 1918970); also: nearly all actives have a fitted effect of over 30% in size
- settings: KMS27 myeloma cells, CellTiter-Glo ATP viability, 48 h; series mostly up to 45.8 µM
Records with an inconclusive call do not appear. Activity calls are given as the source filed them. Calls follow the shape of the dose curve; as a rule, active = well fitted cell-killing curve with a large enough effect; inconclusive = small, poorly fitted or top-dose-only effect, or effect the other way; inactive = no such curve, though single readings can be large or run the other way.
Classes used: true (active), false (inactive)

compound | label.class
C#CC1(O)CCC2C3CCC4=CC(=O)CCC4(C)C3CCC21C (stereo not drawn) | false
C[C@@H]1CC[C@@]2(OC1)O[C@H]1C[C@H]3[C@@H]4CC=C5C[C@@H](O[C@@H]6O[C@H](CO)[C@@H](O[C@@H]7O[C@@H](C)[C@H](O)[C@@H](O)[C@@H]7O)[C@H](O)[C@@H]6O[C@@H]6O[C@@H](C)[C@H](O)[C@@H](O)[C@@H]6O)CC[C@]5(C)[C@@H]4CC[C@]3(C)[C@@H]1[C@H]2C | true
N#C[C@H](O[C@@H]1O[C@H](CO[C@@H]2O[C@H](CO)[C@H](O)[C@H](O)[C@H]2O)[C@H](O)[C@H](O)[C@H]1O)c1ccccc1 | true

----------
- protocol.summary: qHTS for Inhibitors of the Functional Ribonucleoprotein Complex (vRNP) of Lassa (LASV) Arenavirus: Viability assay - alamar blue signal for LASV Primary Screen (AID 1347083); also: nearly all actives have a fitted effect of over 80% in size; also: potency is read from the fitted curve at half-maximal effect
- settings: cell viability, alamar blue fluorescence (LASV minigenome counter-screen); series mostly up to 57.5 µM
Results filed as inconclusive are left out. The source made the active and inactive calls. Calls follow the shape of the full dose curve; tested in HEK293 reporter line.
quantity.measured: Potency

structure.as.smiles | quantity.measured | result
Cc1ccccc1-n1c(Cn2ncc3c(N)ncnc32)nc2cccc(C)c2c1=O | Potency | 485 nM (active)
COc1cc2c(cc1OC)CC(=O)N(CCCN(C)C[C@H]1Cc3cc(OC)c(OC)cc31)CC2 | Potency | inactive
CC(C)Oc1cccc(NC(=O)c2ccccc2C(F)(F)F)c1 | Potency | inactive
CO[C@@H]1[C@H](N(C)C(=O)c2ccccc2)C[C@H]2O[C@]1(C)n1c3ccccc3c3c4c(c5c6ccccc6n2c5c31)C(=O)NC4 | Potency | 3060 nM (active)
CC[C@@H](C)[C@H](NC(=O)[C@H](CC1CCCCC1)NC(=O)c1ccno1)C(=O)N1CCC2(CCc3ccccc32)CC1 | Potency | inactive
CCOc1cc(NC(C)=O)ccc1C(=O)OC | Potency | inactive

----------
- protocol.summary: qHTS of pediatric cancer cell lines to identify multiple opportunities for drug repurposing: Primary screen for DAOY cells (AID 1347090); also: nearly all actives have a fitted effect of over 55% in size; also: potency is read from the fitted curve at half-maximal effect
- settings: DAOY medulloblastoma viability, CellTiter-Glo luminescence, 48 h; series mostly up to 46 µM
Records with an inconclusive call do not appear. Calls of active or inactive are those of the source. Calls follow the shape of the dose curve; as a rule, active = well fitted cell-killing curve with a large enough effect; inconclusive = small, poorly fitted or top-dose-only effect; inactive = flat fitted curve, though single readings scatter.

molecule | Potency
CCC(=O)O[C@@H]1C=C2CCC3C(CCC4(C)C3CC[C@@H]4OC(=O)CC)C2CC1 (some centres undefined) | inactive
CCCCCCCCCC(CC)c1ccc(S(=O)(=O)O)cc1 (centres undefined) | inactive
CC(=O)[O][Hg][c]1ccccc1 | 1.68 µM (active)
CC(C)N(CCNC(=O)CN1CCCC1=O)C(C)C | inactive
Clc1ccccc1C(c1ccccc1)(c1ccccc1)n1cccn1 | inactive
CC[C@@H](C(N)=O)N1CCCC1=O | inactive
CC1(C)CC/C(=C/c2ccc(Cl)cc2)C1(O)Cn1cncn1 (centres undefined) | inactive
O=C(N[C@H]1CN2CCC1CC2)c1ccc(Cl)cc1 | 18.7 µM (active)
CC(O)=C(C#N)C(=O)Nc1cc(Br)ccc1Br | inactive

----------
- System: WaGa
- protocol.summary: qHTS assay to identify novel small-molecules to repurpose for Merkel cell carcinoma treatment (AID 1296009); also: nearly all actives have a fitted effect of over 60% in size
- settings: MCC and control cell lines, CellTiter-Glo viability, 72 h; series mostly up to 46 µM
Results filed as inconclusive are left out. Calls of active or inactive are those of the source. Calls follow the shape of the dose curve; as a rule, active = well fitted inhibition curve with a large enough effect; inconclusive = small, poorly fitted or top-dose-only effect; inactive = flat fitted curve, though single readings scatter.
Classes used: active, inactive

structure.as.smiles | label.class
Clc1ccccc1C(c1ccccc1)(c1ccccc1)n1cccn1 | inactive
O=c1[nH]c2ccc(Cl)cc2c(N[C@@H]2CN3CCC2CC3)c1-c1nc2ccccc2[nH]1 | active
O=C(N[C@H]1CN2CCC1CC2)c1ccc(Cl)cc1 | inactive
CC[C@@]1(O)C(=O)OCc2c1cc1n(c2=O)Cc2cc3ccccc3nc2-1 | active
O=[N+]([O-])/N=C1\NCCN1Cc1ccc(Cl)nc1 | inactive

----------
- assay.system: phosphoglycerate mutase (Leishmania major)
- protocol.summary: qHTS Validation Assay to Find Inhibitors of Phosphoglycerate Mutase (AID 504548);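 also: end-point luminescence from Kinase-GloPlus after the PGAM reaction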
- settings: biochemical enzyme activity; series mostly up to 57.5 µM
Results filed as inconclusive are left out. Activity calls are given as the source filed them. The call rests on the fitted dose curve; in most records, active means well fitted curve in the direction sought with a large enough effect; inconclusive means small, poorly fitted or top-dose-only effect, or another doubt; inactive means no such curve, though single readings can be large or run the other way.

compound | outcome
C[C@]12CCC3C(CC[C@H]4C[C@H](O)CC[C@]34C)C1CC[C@@H]2C(=O)CO (stereo partly drawn) | inactive
c1ccc(C2(c3ccccc3)CC2C2=NCCN2)cc1 (stereo not drawn) | inactive
c1ccc(CCCN2CCN(CCOC(c3ccccc3)c3ccccc3)CC2)cc1 | inactive

----------
- protocol.summary: Quantitative High-Throughput drug screen in 47 multiple myeloma cell lines against the NCATS MIPE library collection: KMM1_JCRB cell viability assay (AID 1918960); also: nearly all actives have a fitted effect of over 30% in size
- settings: KMM1 myeloma viability, CellTiter-Glo ATP luminescence, 48 h; series mostly up to 45.8 µM
Records with an inconclusive call do not appear. Active and inactive are the calls of the source. The call rests on the fitted dose curve; in most records, active means well fitted cell-killing curve with a large enough effect; inconclusive means small, poorly fitted or top-dose-only effect, or effect the other way; inactive means no such curve, though single readings can be large or run the other way.
Classes used: Yes (active), No (inactive)

molecule | label.class
CC(N[C@H]1C[C@H]1c1ccccc1)c1ccc2c(c1)OCCO2 (stereo partly drawn) | No
C[C@@]12OC(=O)[C@]1([C@@H](O)[C@@H]1C=CCCC1)NC(=O)[C@H]2CCCl | Yes
COc1cc2cc(c1Cl)N(C)C(=O)C[C@H](OC(=O)C(C)C)[C@]1(C)O[C@H]1[C@H](C)[C@@H]1C[C@@](O)(NC(=O)O1)[C@H](OC)C=CC=C(C)C2 | No

----------
- protocol.summary: Immunotoxin (HA22) sensitization/mitigation study. Vehicle arm (PBS) (AID 1159510)
- settings: cancer cells viability with PBS vehicle (HA22 study); series mostly up to 46.1 µM
Activity calls are given as the source filed them. How the calls were made is not given here.
Classes used: active, inactive

molecule | label.class
COc1ccc2c(c[n+](C)c3c4cc5c(cc4ccc23)OCO5)c1OC | active
CC(C)c1onc(-c2c(Cl)cccc2Cl)c1COc1ccc(/C=C/c2cccc(C(=O)O)c2)c(Cl)c1 | active
O=C(c1ccc(Nc2nccc(-c3cc4ccccc4s3)n2)cc1)N1CCC(N2CCCC2)CC1 | active
COc1ccccc1[C@H](c1cccc2ccccc12)[C@@](C)(C#N)C(=O)N1CCC(c2cccc(C(F)(F)F)c2)CC1 | inactive
CC1(O)CC(c2nc(-c3ccc4ccc(-c5ccccc5)nc4c3)c3c(N)nccn23)C1 (stereo unspecified) | active
COc1cc2ncnc(Nc3ccc(F)c(Cl)c3)c2cc1NC(=O)C=CCN1CCCCC1 | active

----------
- protocol.summary: Quantitative High-Throughput drug screen in 47 multiple myeloma cell lines against the NCATS MIPE library collection: KMS12BM_JCRB cell viability assay (AID 1918971); also: potency is read from the fitted curve at half-maximal effect; nearly all actives have a fitted effect of over 35% in size
- settings: KMS12BM myeloma viability, CellTiter-Glo ATP, 48 h; series mostly up to 45.8 µM
- Source text: PI: Beverly A. Mock Ph.D. Laboratory of Cancer Biology and Genetics, Center for Cancer Research, National Cancer Institute, National Institute of Health, Bethesda, Maryland […] 5; Detector; 425V; Luminescence; Viewlux PerkinElmer. […] 1. […] Briefly, the corresponding myeloma cell lines were screened in 1,536-well plates with 500 cells, 5-uL per well for inhibition of cell viability (assessed by measuring ATP levels with CellTiterGlo). […]
Results filed as inconclusive are left out. The source made the active and inactive calls. The call rests on the fitted dose curve; in most records, active means well fitted cell-killing curve with a large enough effect; inconclusive means small, poorly fitted or top-dose-only effect, or effect the other way; inactive means no such curve, though single readings can be large or run the other way.

molecule | Potency
O=S(=O)(CC1CS1)c1ccc(Oc2ccccc2)cc1 (stereo not given) | 26.4 µM (active)
COCC1(CO)C(=O)C2CCN1CC2 (stereo not given) | 7.43 µM (active)
O=C(Nc1ccncc1)C(=O)c1cn(Cc2ccc(Cl)cc2)c2ccccc12 | 0.148 µM (active)
CO[C@H]1CCC(O[C@H]2C[C@H]([C@]3(C)CC[C@]4(C[C@H](O)[C@@H](C)[C@@H]([C@@H](C)C=C(C)C(=O)[C@H](C)C[C@H](C)C(=O)O)O4)O3)O[C@]3(O[C@@H]([C@H]4O[C@@](O)(CO)[C@H](C)C[C@H]4C)C[C@H]3C)[C@H]2C)O[C@H]1C (stereo not given in full) | 0.0833 µM (active)
COc1ccc2c(c[n+](C)c3c4cc5c(cc4ccc23)OCO5)c1OC | 3.72 µM (active)

// provenance: PubChem BioAssay (NCATS)
